- measurement-target: Human CB1R (Cannabanoid receptor 1) (Homo sapiens (Human), UniProt P21554)
- Sequence (P21554 whole entry): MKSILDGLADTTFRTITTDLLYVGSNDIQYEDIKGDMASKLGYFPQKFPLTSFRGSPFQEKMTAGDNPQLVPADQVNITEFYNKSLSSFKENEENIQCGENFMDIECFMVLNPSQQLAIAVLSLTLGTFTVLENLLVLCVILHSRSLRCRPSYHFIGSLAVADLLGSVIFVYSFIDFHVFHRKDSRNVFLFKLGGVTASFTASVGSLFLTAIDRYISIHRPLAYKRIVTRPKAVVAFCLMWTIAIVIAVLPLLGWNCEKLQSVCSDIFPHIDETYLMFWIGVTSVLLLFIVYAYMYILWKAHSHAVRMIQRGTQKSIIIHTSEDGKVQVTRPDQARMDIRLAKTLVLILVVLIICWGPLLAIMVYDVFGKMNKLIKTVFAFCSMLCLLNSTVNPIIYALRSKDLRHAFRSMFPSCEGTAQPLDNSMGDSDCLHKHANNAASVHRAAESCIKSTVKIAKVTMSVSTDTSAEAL
- experiment: CB-1 in vitro cAMP (HTRF) assay in HEK-293 cells
- assay-context: HEK-293 cells stably transfected with human CB1R, 250 nM Forskolin, mean where tested more than once, read-out: CB-1 (HEK_cAMP) EC50
Reported pEC50 values for a set of molecules
# log scale: pEC50 equals minus log10 of the concentration in mol/L

The examples below pair each entry with its known result.
molecule="NC(=O)c1ccccc1C(=O)N1CCC(c2c3cc(C(c4ccc(Cl)cc4)c4ccc(Cl)cc4)ccc3nn2C2CC2)CC1 [Compound 124]" endpoint_result=6.63
molecule=NS(=O)(=O)c1ccc(C(=O)N2CCC(c3nn(CCO)c4ccc(C(c5ccc(Cl)cc5)c5ccc(Cl)cc5)cc34)CC2)cc1 endpoint_result=7.41

We now examine a further molecule.
Param item = NC(=O)c1cccc(CN2CCC(c3nn(C4CC4)c4ccc(C(c5ccc(Cl)cc5)c5ccc(Cl)cc5)cc34)CC2)c1 ; retrieve measured pEC50.
8.10

Entry source: patent US9682940B2
